- Measurement Protocol: Gravimetric moisture sorption analysis
- Assay type: physicochemical
- Condition Details: gravimetric moisture sorption; Form A

Compound	hygroscopicity
CS(=O)(=O)O	moderately hygroscopic
O=C(O)c1ccc2ccccc2c1O [1-hydroxy-2-napthoic acid]	moderately hygroscopic

---

- Measurement Protocol: Stability at elevated temperature (60° C., 7 days)
- Assay type: physicochemical
- Condition Details: 60° C., 7 days, uncovered, ambient pressure; initial Form A
Recorded Metric: XRPD (Form) after elevated temperature

Examples with their reported XRPD (Form) after elevated temperature follow.
Compound	Result
CS(=O)(=O)O	no signs of conversion
O=C(O)CCC(=O)O	no signs of conversion
O=C1CCC(C(=O)O)N1 (stereo not shown)	no signs of conversion
Cl [Hydrochloric acid]	no signs of conversion

Next compound, please.
Query :: Sample "O=P(O)(O)O" — what was its XRPD (Form) after elevated temperature?
Result :: no signs of conversion
